Reported pKi, JAK3 (Homo sapiens (Human)).
Schema: pKi number; meaning minus log10 of the concentration expressed in molar units.

| COMPOUND | ENDPOINT_VALUE |
| --- | --- |
| CCc1cc(O)c(F)cc1-c1ccc2c(-c3nc4c([nH]3)CNC(C(=O)N3CCN(C(C)C)CC3)C4)n[nH]c2c1 (stereo not drawn) | 9.80 |
| CCc1cc(O)c(F)cc1-c1ccc2c(-c3nc4c([nH]3)CN(CC)[C@@H](C(=O)N3CCN(C(C)(C)C)CC3)C4)n[nH]c2c1 | 9.30 |

-- ask Missing value: pKi, JAK3 (Homo sapiens (Human)), entry CCc1cc(O)c(F)cc1-c1ccc2c(-c3nc4c([nH]3)CN(C(C)C)[C@H](C(=O)N3CC[C@H](N(C)C)C3)C4)n[nH]c2c1 . Fill in?
-- reply 10.00

====

Reported Ki, JAK1 (Homo sapiens (Human), UniProt P23458).
Respond numerically; units are nM and should not be typed.

Example entries begin here.
| COMPOUND | TEST_SYSTEM | Ki (nM) |
| --- | --- | --- |
| CCc1cc(O)c(F)cc1-c1ccc2c(-c3nc4c([nH]3)CN(CC)[C@@H](C(=O)N(C)CCN(CC)CC)C4)n[nH]c2c1 [Example 12-14] | JAK1 (Homo sapiens (Human), UniProt P23458) | 0.06 |
| CCCN1Cc2[nH]c(-c3n[nH]c4cc(-c5cc(F)c(O)cc5CC)ccc34)nc2C[C@@H]1C(=O)N1CC[C@H](N(C)C)C1 [Example 9-21] | JAK1 (Homo sapiens (Human), UniProt P23458) | 0.06 |

Next:
-- ask Return reported Ki; argument: CCc1cc(O)c(F)cc1-c1ccc2c(-c3nc4c([nH]3)CN(C(C)C)[C@H](C(=O)N3CCCN(C)CC3)C4)n[nH]c2c1 [Example 5]
-- reply 0.08

====

# TEST_SYSTEM: Tyk2 (Homo sapiens (Human), UniProt P29597)
# Sequence (P29597 whole entry): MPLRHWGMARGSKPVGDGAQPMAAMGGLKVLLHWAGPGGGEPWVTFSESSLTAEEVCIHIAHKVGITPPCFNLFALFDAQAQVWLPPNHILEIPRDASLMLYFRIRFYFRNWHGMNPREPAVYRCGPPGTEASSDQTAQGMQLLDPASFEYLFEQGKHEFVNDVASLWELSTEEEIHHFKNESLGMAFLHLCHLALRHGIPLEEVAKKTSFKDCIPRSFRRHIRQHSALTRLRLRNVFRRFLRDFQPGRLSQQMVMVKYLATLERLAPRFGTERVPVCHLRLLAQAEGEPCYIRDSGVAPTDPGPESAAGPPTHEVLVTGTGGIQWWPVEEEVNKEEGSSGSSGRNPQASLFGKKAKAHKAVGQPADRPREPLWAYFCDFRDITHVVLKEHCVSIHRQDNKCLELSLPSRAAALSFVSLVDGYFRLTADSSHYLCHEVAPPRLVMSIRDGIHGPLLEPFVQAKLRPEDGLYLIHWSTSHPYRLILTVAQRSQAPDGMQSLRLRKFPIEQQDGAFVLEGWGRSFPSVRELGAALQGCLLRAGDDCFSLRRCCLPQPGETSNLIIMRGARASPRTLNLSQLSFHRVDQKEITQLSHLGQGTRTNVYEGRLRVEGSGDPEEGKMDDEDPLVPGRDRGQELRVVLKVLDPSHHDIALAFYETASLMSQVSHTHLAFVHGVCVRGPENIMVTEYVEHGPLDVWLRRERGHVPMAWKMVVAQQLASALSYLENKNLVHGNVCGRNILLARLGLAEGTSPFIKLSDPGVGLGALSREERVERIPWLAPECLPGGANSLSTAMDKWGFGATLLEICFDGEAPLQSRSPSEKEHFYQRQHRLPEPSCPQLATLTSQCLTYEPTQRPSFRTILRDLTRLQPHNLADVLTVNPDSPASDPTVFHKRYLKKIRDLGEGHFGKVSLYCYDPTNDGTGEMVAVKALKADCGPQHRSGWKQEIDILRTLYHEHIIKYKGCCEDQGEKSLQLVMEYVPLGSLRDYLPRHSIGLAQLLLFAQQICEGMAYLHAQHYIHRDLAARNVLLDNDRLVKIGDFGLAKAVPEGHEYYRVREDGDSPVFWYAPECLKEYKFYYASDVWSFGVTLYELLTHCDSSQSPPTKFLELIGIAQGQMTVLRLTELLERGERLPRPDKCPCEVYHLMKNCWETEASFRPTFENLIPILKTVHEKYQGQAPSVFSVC
ATTRIBUTE_MEASURED: Ki (nM)
Respond numerically; units are nM and should not be typed.

| COMPOUND | Ki / nM |
| --- | --- |
| CCc1cc(O)c(F)cc1-c1ccc2c(-c3nc4c([nH]3)CN(CC)[C@@H](C(=O)N3CCN(C(C)(C)C)CC3)C4)n[nH]c2c1 | 1.26 |
| CCCN1Cc2[nH]c(-c3n[nH]c4cc(-c5cc(F)c(O)cc5CC)ccc34)nc2C[C@@H]1C(=O)N1CC[C@H](N(C)C)C1 | 1 |
| CCCN1Cc2[nH]c(-c3n[nH]c4cc(-c5cc(F)c(O)cc5CC)ccc34)nc2C[C@H]1C(=O)N1C[C@@H]2C[C@H]1CN2C | 0.25 |
| CCc1cc(O)c(F)cc1-c1ccc2c(-c3nc4c([nH]3)CN(C(C)C)[C@H](C(=O)N3CC[C@H](N(C)C)C3)C4)n[nH]c2c1 | 0.4 |

Next:
-- ask Missing value: Ki, Tyk2 (Homo sapiens (Human), UniProt P29597), entry CCc1cc(O)c(F)cc1-c1ccc2c(-c3nc4c([nH]3)CNC(C(=O)N3CCN(C(C)C)CC3)C4)n[nH]c2c1 (centres unmarked) . Fill in?
-- reply 0.08

====

# TEST_SYSTEM: JAK3 (Homo sapiens (Human))
# Sequence (P52333 whole entry): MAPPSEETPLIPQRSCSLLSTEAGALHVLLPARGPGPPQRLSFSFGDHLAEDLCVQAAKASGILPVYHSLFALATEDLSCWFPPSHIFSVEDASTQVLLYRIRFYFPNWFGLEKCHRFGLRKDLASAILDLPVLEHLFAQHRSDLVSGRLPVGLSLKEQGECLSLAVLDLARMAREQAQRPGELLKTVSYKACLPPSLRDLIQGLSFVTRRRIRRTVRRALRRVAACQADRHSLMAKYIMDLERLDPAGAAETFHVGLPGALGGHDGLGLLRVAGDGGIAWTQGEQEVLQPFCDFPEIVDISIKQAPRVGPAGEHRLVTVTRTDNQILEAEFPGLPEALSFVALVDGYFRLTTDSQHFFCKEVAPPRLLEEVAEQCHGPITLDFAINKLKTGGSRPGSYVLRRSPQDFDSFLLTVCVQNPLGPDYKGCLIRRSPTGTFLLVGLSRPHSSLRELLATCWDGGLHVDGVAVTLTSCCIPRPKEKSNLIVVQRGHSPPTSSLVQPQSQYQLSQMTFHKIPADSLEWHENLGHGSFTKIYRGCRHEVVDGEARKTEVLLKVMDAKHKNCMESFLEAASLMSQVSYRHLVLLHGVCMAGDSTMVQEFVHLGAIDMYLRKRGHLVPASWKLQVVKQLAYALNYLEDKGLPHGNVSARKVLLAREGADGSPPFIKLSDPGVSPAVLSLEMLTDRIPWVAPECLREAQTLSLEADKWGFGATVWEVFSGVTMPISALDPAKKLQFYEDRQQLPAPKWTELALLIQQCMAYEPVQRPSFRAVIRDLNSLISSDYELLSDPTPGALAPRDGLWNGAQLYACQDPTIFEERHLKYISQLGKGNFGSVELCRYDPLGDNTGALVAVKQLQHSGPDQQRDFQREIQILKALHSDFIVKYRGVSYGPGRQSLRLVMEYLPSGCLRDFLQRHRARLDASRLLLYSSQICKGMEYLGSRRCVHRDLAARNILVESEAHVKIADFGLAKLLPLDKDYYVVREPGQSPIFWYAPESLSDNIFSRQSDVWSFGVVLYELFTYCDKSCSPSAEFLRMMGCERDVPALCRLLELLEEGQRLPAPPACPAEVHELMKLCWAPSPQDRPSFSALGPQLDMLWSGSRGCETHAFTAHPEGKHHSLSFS
Here the recorded Ki is given for each entry.
Respond numerically; units are nM and should not be typed.

Example entries begin here.
| TEST_SMILES | TEST_SYSTEM | ATTRIBUTE_MEASURED | UNIT_ANNOTATION | ENDPOINT_VALUE |
| --- | --- | --- | --- | --- |
| CCCN1Cc2[nH]c(-c3n[nH]c4cc(-c5cc(F)c(O)cc5CC)ccc34)nc2C[C@H]1C(=O)N1C[C@@H]2C[C@H]1CN2C | JAK3 (Homo sapiens (Human)) | Ki | nM | 0.08 |
| CCc1cc(O)c(F)cc1-c1ccc2c(-c3nc4c([nH]3)CN(C(C)C)[C@H](C(=O)N3CCCN(C)CC3)C4)n[nH]c2c1 | JAK3 (Homo sapiens (Human)) | Ki | nM | 0.2 |

Next:
-- ask Missing value: Ki, JAK3 (Homo sapiens (Human)), entry CCc1cc(O)c(F)cc1-c1ccc2c(-c3nc4c([nH]3)CN(CC)[C@@H](C(=O)N(C)CCN(CC)CC)C4)n[nH]c2c1 . Fill in?
-- reply 0.2

====

Reported Ki, JAK2 (Homo sapiens (Human), UniProt O60674).
Returns: string containing the numeric result and its unit.

| COMPOUND | Ki |
| --- | --- |
| CCc1cc(O)c(F)cc1-c1ccc2c(-c3nc4c([nH]3)CNC(C(=O)N3CCN(C(C)C)CC3)C4)n[nH]c2c1 (centres unmarked) [Example 1-2] | 0.03 nM |
| CCc1cc(O)c(F)cc1-c1ccc2c(-c3nc4c([nH]3)CN(CC)[C@@H](C(=O)N3CCN(C(C)(C)C)CC3)C4)n[nH]c2c1 [Example 1-37] | 0.04 nM |
| CCCN1Cc2[nH]c(-c3n[nH]c4cc(-c5cc(F)c(O)cc5CC)ccc34)nc2C[C@@H]1C(=O)N1CC[C@H](N(C)C)C1 [Example 9-21] | 0.03 nM |
| CCc1cc(O)c(F)cc1-c1ccc2c(-c3nc4c([nH]3)CN(C(C)C)[C@H](C(=O)N3CC[C@H](N(C)C)C3)C4)n[nH]c2c1 [Example 3] | 0.02 nM |

Next:
-- ask Missing value: Ki, JAK2 (Homo sapiens (Human), UniProt O60674), entry CCCN1Cc2[nH]c(-c3n[nH]c4cc(-c5cc(F)c(O)cc5CC)ccc34)nc2C[C@H]1C(=O)N1C[C@@H]2C[C@H]1CN2C [Example 1] . Fill in?
-- reply 0.02 nM

====

Reported Ki, JAK1 (Homo sapiens (Human), UniProt P23458).
Returns: string containing the numeric result and its unit.

| COMPOUND | TEST_SYSTEM | ENDPOINT_VALUE |
| --- | --- | --- |
| CCc1cc(O)c(F)cc1-c1ccc2c(-c3nc4c([nH]3)CN(C(C)C)[C@H](C(=O)N3CC[C@H](N(C)C)C3)C4)n[nH]c2c1 | JAK1 (Homo sapiens (Human), UniProt P23458) | 0.06 nM |
| CCc1cc(O)c(F)cc1-c1ccc2c(-c3nc4c([nH]3)CNC(C(=O)N3CCN(C(C)C)CC3)C4)n[nH]c2c1 (stereo not drawn) | JAK1 (Homo sapiens (Human), UniProt P23458) | 0.05 nM |
| CCCN1Cc2[nH]c(-c3n[nH]c4cc(-c5cc(F)c(O)cc5CC)ccc34)nc2C[C@H]1C(=O)N1CCN(CCO)CC1 | JAK1 (Homo sapiens (Human), UniProt P23458) | 0.06 nM |

-- ask Return reported Ki; argument: CCc1cc(O)c(F)cc1-c1ccc2c(-c3nc4c([nH]3)CN(CC)[C@@H](C(=O)N3CCN(C(C)(C)C)CC3)C4)n[nH]c2c1
-- reply 0.1 nM

-- ask Return reported Ki; argument: CCCN1Cc2[nH]c(-c3n[nH]c4cc(-c5cc(F)c(O)cc5CC)ccc34)nc2C[C@H]1C(=O)N1C[C@@H]2C[C@H]1CN2C
-- reply 0.05 nM

-- ask Return reported Ki; argument: CCc1cc(O)c(F)cc1-c1ccc2c(-c3nc4c([nH]3)CN(C)[C@H](C(=O)N3CCN(CCO)C[C@H]3C)C4)n[nH]c2c1
-- reply 0.1 nM
